- Test system: RXF 393 renal
- test.name: NCI tumour cell line growth inhibition, 48 h
property.name: TGI

QUERY: Fill blank: measured TGI of the molecule `C=CCN1CN(c2ccccc2)C2(CCN(CCCC3(c4ccc(F)cc4)OCCO3)CC2)C1=O` is ____.
RESULT: 28.1 µM

QUERY: Same again, this time with CC1=NN(C(=O)CC(=O)Nc2cccc(Cl)c2)C(=O)C1N=Nc1ccc(C(=O)O)cc1 (centres undefined)
RESULT: > 100 µM

QUERY: Same again, this time with `CC(C)CCN[C@@H]1CCc2cc(O)c(N3CC(=O)NS3(=O)=O)c(F)c2C1`
RESULT: 8.01 µM

QUERY: Same again, this time with `CC1(C)[C@H]2Cc3cc(-c4cc5c(cn4)[C@@H]4C[C@H]([C@@H]5[C@@H]5c6cc(-c7cc8c(cn7)[C@@H]7C[C@H](C8)C7(C)C)ncc6[C@@H]6C[C@H]5C6(C)C)C4(C)C)ncc3[C@@H]1C2`
RESULT: > 100 µM

QUERY: Same again, this time with `O=C(N/N=C\C(F)(F)F)c1ccncc1`
RESULT: > 100 µM

QUERY: Same again, this time with `CN1CC(=O)N(C)c2nc[nH]c2C1=O`
RESULT: > 100 µM

QUERY: Same again, this time with `COc1ccccc1CNC(=O)[C@H](Cc1ccc(O)cn1)NC(C)=O`
RESULT: > 100 µM

QUERY: Same again, this time with `COc1cc2c(cc1OC)C(=O)N(NC1=NCCN1)C2=O`
RESULT: > 100 µM

QUERY: Same again, this time with `COC(=O)[C@@H](C)C[C@H](Cc1ccccc1)NC(=O)c1csc([C@@H](C[C@H](C(C)C)N(C)C(=O)[C@H](C)NC(=O)[C@H]2CCCCN2C)OC(C)=O)n1`
RESULT: 24.2 µM

Recorded values, source PubChem BioAssay (NCI).
